- assayProtocol: Metabolic stability in rat liver microsomes assessed as parent compound remaining at 1 uM after 30 mins in presence of NADPH by LC/MS/MS analysis
- Assay type: ADME, Microsome
- measurementSetup: read-out: Stability
Rule for this label: MET means remaining at 0.5 h, 1 µM is less than 10%; NOT MET means remaining at 0.5 h, 1 µM is at least 10%.

Examples from the recorded data:
INSERT INTO results (samplesmiles, labelvalue) VALUES
  ('C=CC(=O)Nc1cc(Nc2ncc(I)c(Nc3ccccc3P(C)(C)=O)n2)c(OC)cc1N(C)CCN(C)C', 'NOT MET'),
  ('C=CC(=O)Nc1cc(Nc2ncc(Cl)c(Nc3ccccc3S(=O)(=O)C(C)C)n2)c(OC)cc1N(C)CCN(C)C', 'NOT MET'),
  ('C=CC(=O)Nc1cc(Nc2ncc(Cl)c(Nc3ccccc3S(=O)(=O)N(C)C)n2)c(OC)cc1N(C)CCN(C)C', 'NOT MET'),
  ('C=CC(=O)Nc1cc(Nc2nccc(Nc3ccccc3S(=O)(=O)C(C)C)n2)c(OC)cc1N(C)CCN(C)C', 'NOT MET'),
  ('C=CC(=O)Nc1cc(Nc2ncc(Cl)c(Nc3ccccc3P(C)(C)=O)n2)c(OC)cc1N(C)CCN(C)C', 'NOT MET');

Attention now shifts to the item below.
QUERY: Is remaining at 0.5 h, 1 µM strictly under 10% for the entry `C=CC(=O)Nc1cc(Nc2ncc(F)c(Nc3ccccc3S(=O)(=O)N(C)C)n2)c(OC)cc1N(C)CCN(C)C` ?
RESULT: MET

Hello, the source for this data is ChEMBL document CHEMBL4382192, in case you need it.
